- System: MCF7 breast
- assay.remarks: NCI-60 one-dose screen, 48 h (100 = growth as untreated, 0 = no growth, -100 = all killed)
- condition.details: 10 µM unless noted
- Protocol: Growth inhibition of the MCF7 human tumor cell line is measured as a screen for anti-cancer activity. Cells are grown in 96 well plates and exposed to the test compound for 48 hours. Compounds are tested at a single concentration, which is 10^-5 M for most compounds. The reported endpoint is percent growth (GI% or GIPRCNT), where numbers from 0 - 100% represent growth inhibition, and numbers from -100% - 0 represent cell death. For example, a value of 40 represents 60% growth inhibition. […]
This is part of a sample that, as a whole, favours compounds with a hit. Of some 83,000 tested, about 20% had one in any assay.
recorded.metric: growth (%)
Express it in %; write the number only.

Record excerpt, results attached:
| compound | growth [%] |
| --- | --- |
| CC(=[N-])N1CCC[C@@H](Nc2c3ccccc3nc3ccccc23)C1.[Cl][Pt].[NH-]CCC[NH-] | 10.6 |
| Cc1nn(Cc2ccccc2)cc1C(=O)Nc1sc2c(c1C(N)=O)CCC(=O)C2 | 13.6 |
| CCOC(=O)c1nnn(-c2ccccc2)c1C1=CN(C)CCC1 | 92.9 |
| Cc1c(C)c2c(c(C)c1NC(=O)/C=C\C(=O)O)CCC(C)(CCCC(C)CCCC(C)CCCC(C)C)O2 (stereo unspecified) | 51.2 |
| CCN(CC)CCNc1ccc(C)c2sc3cc(C)ccc3c(=O)c12 | 43.7 |

I am curious: what growth value has been reported for "C=C(C=O)[C@@H]1CC=C(C=O)CC1" ?
-17.3

I am curious: what growth value has been reported for "CC(C)(C)Nc1c(-c2c3ccccc3cc3ccccc23)nc2ccccn12" ?
74.2
